Tested on: Cyclin D1
Method: Immunoblot analysis of Cyclin D1 expression
Assay type: cell-based
Assay conditions: biomarker expression, Table 3
Measure: Repression of Cyclin D1

The following compounds have reported results that may help.
>>> result("CC1=C(/C=C/C(C)=C/C=C/C(C)=C/C(=O)Nc2ccc(O)cc2)C(C)(C)CCC1 [Compound 4-HPR, N-(4-hydroxyphenyl)retinamide, reference compound]")
"Yes"
>>> result("CC1=C(/C=C/C(C)=C/C=C/C(C)=C/C(=O)O)C(C)(C)CCC1 [ATRA, All-trans retinoic acid, reference compound]")
"No"
>>> result("CC1=C(/C=C/C(C)=C/C=C/C(C)=C/C(=O)Nc2ccc(O)c(F)c2)C(C)(C)CCC1")
"Yes"
>>> result("CC1=C(/C=C/C(C)=C/C=C/C(C)=C/C(=O)Nc2ccc(O)c(Cl)c2)C(C)(C)CCC1")
"Yes"

Form: Entry = CC1=C(/C=C/C(C)=C/C=C/C(C)=C/C(=O)Nc2ccc(O)c(I)c2)C(C)(C)CCC1 | System = Cyclin D1 | Repression of Cyclin D1 = ____
Yes
